REPORTED_ENDPOINT: melting point

• CCNCC(=O)Nc1cccc2c1C(=O)c1c-2n[nH]c1-c1ccc(OC)cc1 = 250 °C
• N#Cc1ccccc1Oc1cc(-n2cccc2)ccc1O = 120 to 122 °C
• COc1ccc(-c2ncnc(C(F)(F)F)c2Cl)cc1 = 104 to 106 °C
• N#CNC(=NC1CCN(Cc2ccccc2)CC1)N1CCOCC1 = 163 to 165 °C
• CCOP(=O)(OCC)C(CCc1cc(C)nc2c(C#N)c(C)nn12)P(=O)(OCC)OCC = 49 to 50 °C

* * *

REPORTED_ENDPOINT: melting point

- CCN(CC)C1=NS(=O)(=O)c2cccc(OC(F)F)c21: 93 to 94 °C
- N#Cc1cc(F)c(F)c(Br)c1Cl: 71 to 72.5 °C
- Cc1c(CN2CCc3c(c4cccc(F)c4n3C)C2=O)ncn1C(=O)OCc1ccccc1: 126 to 128 °C
- CC(C(N)=O)c1ccc(N)cc1 (stereo unspecified): 120 to 122 °C
- CNC(=O)c1ccccc1Nc1nc(Nc2cc3c(cc2OC)C(=O)N(C)CCC3)ncc1Cl: 152 to 154 °C
- COc1ccnc(CCc2nc3cccnc3n2-c2ccc(OCc3ccccc3)c(F)c2)c1: 168 to 170 °C
- O=C(NCCO)c1cccc(-c2cccc3nc(C(O)c4cccc(C(F)(F)F)c4)cn23)c1 (stereo unspecified): 169 °C
- Cc1c(-c2ccncc2)nc2n(c1=O)CCCN2CC(=O)c1ccccc1: 190 to 192 °C
- CCCCOc1ccccc1C=CC(=O)c1ccc(OC)c(OC)c1OC: 129 to 130 °C
- CCOC(=O)C1(C(=O)OCC)CCC2(NCCc3cc(OC)c(OC)cc32)C(C2c3cc(OC)c(OC)cc3CCN2C(C)=O)C1 (stereo unspecified): 146 to 149 °C
- Cc1cc(COc2ccc(C(N)=O)cc2)c2c(N)c(C(N)=O)sc2n1: > 250 °C
- CC(C)(C)c1cc(C(=O)c2cccs2)cc(CN(C2CCCCC2)C2CCCCC2)c1O: 161 to 162 °C
- O=C(CC1=C(n2nc(-c3c(-c4ccccc4)nn4ccccc34)ccc2=O)CCCC1)N1CCOCC1: 202 to 204 °C
- Nc1nc(-c2cccc3ccccc23)cc2ccc(Cl)cc12: 180 to 181 °C
- CON=C(C#CCN1CCOCC1)C(=O)OC: 43 to 45 °C
- CCOC(=O)c1cnc2n(c1=O)CCC(C)C2=NNc1ccccc1 (stereo unspecified): 108 to 110 °C
- Nc1ccc(Cc2n[nH]c(=O)o2)cc1: 267 to 268 °C
- O=C1CO[C@@H]2c3ccccc3OCC[C@H]2N1 (relative stereo): 246 to 248 °C
- O=Cc1c2ccc3ccccc3c2cc2ccsc12: 199 to 200 °C
- O=C1CCC(N2Cc3c(CNC(=O)NC4CCCCC4)cccc3C2=O)C(=O)N1 (stereo unspecified): 309 to 311 °C
- OC1CSC(Oc2ccc(-c3ccc(C(F)(F)F)cc3)nc2)C(O)C1O (stereo unspecified): 194 to 195 °C
- CCOC(=O)c1ccccc1CCC(=O)Nc1cccc(/C=C/c2nc(C3CCC3)cs2)c1: 110 to 111 °C
- O=C(Nc1nc(C(F)(F)F)co1)C1c2ccccc2Oc2ccc(F)cc21 (racemic): 241 °C
- O=C(Cl)c1ccc(C#Cc2ccccc2F)o1: 96 to 98 °C
- FC(F)(F)c1cc(Cl)c(-c2nc(C(F)(F)F)c(Br)[nH]2)c(Cl)c1: 295 °C
- Cc1ccc(C(N)=S)cc1C: 120 to 125 °C
- CC(=O)NNC(=O)c1ccccc1: 172 to 174 °C
- COc1cc(CN2Cc3cc(OC)c(O)cc3CC2C)cc(OC)c1 (stereo unspecified): 155 to 158 °C
- NS(=O)(=O)c1nnc(NC(=O)c2ccccc2O)s1: > 250 °C
- Cc1c(NC(=O)CC(C)(C)C)cc2c(c1C)OC(C)(C)C2(O)c1cccc(C=O)c1 (stereo unspecified): 189 to 190 °C
- O=S(=O)(c1ccccc1)N1CCCC1c1cccc(F)c1 (racemic): 96 °C
- CCCCS(=O)(=O)NCCc1nc(-c2ccc(-c3ccccc3)cc2)c[nH]1: 168 °C
- COc1ccc(C2=NN(Cc3ccccn3)C(=O)[C@H]3CC=CC[C@@H]23)cc1OC (relative stereo): 146 to 147 °C
- CCCCCC(C)N(Cc1ccnc2ccccc12)C(Nc1ccc(OC)cc1OC)=C1C(=O)OC(C)(C)OC1=O (stereo unspecified): 197 to 202 °C
- CC(=O)c1ccc2cc(N3CCNCC3)ccc2c1: 170 to 172 °C
- N#Cc1nn(-c2c(Cl)cc(C(F)(F)F)cc2Cl)c(N)c1-c1onc(Br)c1Br: 279 °C
- CN(N)c1nc(C(F)(F)F)nc2ccccc12: 130 to 132 °C
- CN1Cc2cccc(Cl)c2S1(=O)=O: 95 to 97 °C
- O=[N+]([O-])C=Cc1cn(-c2ccccc2)c2ccccc12: 154 to 155 °C
- C=C(c1ccc2nc(N)n(S(=O)(=O)C(C)C)c2c1)c1cc(F)ccc1F: 161 to 164 °C
- COc1ccc(C2CCC(=O)CC2NC(=O)c2ccc(OCC3CC3)c(OCC3CC3)c2)cc1OC (stereo unspecified): 150 to 152 °C
